The measurements presented in this section are drawn from ChEMBL document CHEMBL1137297.

Molecular target: Kappa-type opioid receptor (Homo sapiens)
Sequence (P41145 whole entry): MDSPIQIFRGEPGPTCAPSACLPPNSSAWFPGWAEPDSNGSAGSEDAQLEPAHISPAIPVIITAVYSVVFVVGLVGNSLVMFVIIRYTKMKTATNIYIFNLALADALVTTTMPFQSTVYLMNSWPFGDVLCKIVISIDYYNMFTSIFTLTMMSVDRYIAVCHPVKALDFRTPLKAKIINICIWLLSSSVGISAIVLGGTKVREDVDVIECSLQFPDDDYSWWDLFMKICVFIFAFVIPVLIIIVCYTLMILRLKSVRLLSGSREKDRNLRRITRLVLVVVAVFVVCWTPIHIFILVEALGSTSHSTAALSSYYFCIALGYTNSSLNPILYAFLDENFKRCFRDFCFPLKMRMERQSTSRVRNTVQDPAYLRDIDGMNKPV
Experiment: Antagonist activity assessed as inhibition of U50488-stimulated [35S]GTP-gamma-S binding to human kappa opioid receptor expressed in CHO cells
The entries below are paired with their reported log10(IC50).
Please keep in mind that the values are log10 of IC50 expressed in nM.

These solved cases illustrate the format of a correct answer.
Mol	Endpoint label	Numeric value
C[C@H]1CN2CCN(Cc3cccs3)C[C@H]2C[C@@]1(C)c1cccc(O)c1	log10(IC50)	0.82
C[C@H]1CN2CCN(CCc3ccccc3)C[C@H]2C[C@@]1(C)c1cccc(O)c1	log10(IC50)	1.30
C[C@H]1CN2C[C@H](c3ccccc3)CC[C@H]2C[C@@]1(C)c1cccc(O)c1	log10(IC50)	0.51

Give recorded log10(IC50). C[C@H]1CN2CCN(Cc3ccccc3)C[C@H]2C[C@@]1(C)c1cccc(O)c1
0.92

Give recorded log10(IC50). C[C@H]1CN2CCN(CC3CCCCC3)C[C@H]2C[C@@]1(C)c1cccc(O)c1
1.56

Give recorded log10(IC50). C[C@H]1CN2CCN(Cc3ccccc3O)C[C@H]2C[C@@]1(C)c1cccc(O)c1
0.97
